Ki for assorted compounds
- target.desc: Apelin receptor (Homo sapiens)
- Sequence (P35414 whole entry): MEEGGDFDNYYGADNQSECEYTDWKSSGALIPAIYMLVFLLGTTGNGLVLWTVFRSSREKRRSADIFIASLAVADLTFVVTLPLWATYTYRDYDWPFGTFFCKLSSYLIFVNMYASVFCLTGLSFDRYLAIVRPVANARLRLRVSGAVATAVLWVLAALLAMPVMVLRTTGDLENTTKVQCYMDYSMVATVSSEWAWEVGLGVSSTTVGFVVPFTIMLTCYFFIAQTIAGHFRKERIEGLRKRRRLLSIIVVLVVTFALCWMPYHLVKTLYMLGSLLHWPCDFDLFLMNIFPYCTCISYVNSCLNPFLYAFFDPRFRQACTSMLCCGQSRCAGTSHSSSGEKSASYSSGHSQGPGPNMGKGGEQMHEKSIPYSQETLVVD

| chemical.structure | unit.name | Ki |
| --- | --- | --- |
| COc1cccc(OC)c1-c1cc(C(=O)N[C@@H](CCc2ccccc2)CC(=O)O)nn1-c1ccc(F)cc1 | nM | 3000 |
| COc1cccc(OC)c1-c1cc(C(=O)N[C@H](CC(=O)O)CC(C)C)nn1-c1ccc(F)cc1 | nM | 600 |
